Can you tell me pIC50 for the items I'm about to list?
Test system: human platelets (platelet-rich plasma)
Assay: In vitro inhibition of platelet aggregation in human (ADP-induced, PRP)
Format: cell-based
Details: ADP final concentration 5 μM, read-out: Platelet aggregation inhibitory activity in human, IC50
Where a name gives a salt, the structure may show the parent alone.
The read-out pIC50 is expressed as -log10 of concentration in moles per litre.

Give the measured pIC50 of N=C(c1ccc(C(=O)Nc2ccc3c(c2)CC(CC(=O)O)CO3)cc1)N1CCOCC1 (centres unmarked) [Example 5, hydrochloride] . 7.18

Give the measured pIC50 of N=C(c1ccc(C(=O)Nc2ccc3c(c2)CC(CC(=O)O)CO3)cc1)N1CCOCC1 (single isomer, unassigned; (-)) [Example 52, hydrochloride] . 7.46

Give the measured pIC50 of N=C(NCc1ccco1)c1ccc(C(=O)Nc2ccc3c(c2)CN(CC(=O)O)CC3)cc1 [Example 33, dihydrochloride] . 6.80

Give the measured pIC50 of C#CCN=C(N)c1ccc(C(=O)Nc2ccc3c(c2)CC(CC(=O)O)CC3)cc1 (centres unmarked) [Example 25, hydrochloride] . 7.00

Give the measured pIC50 of N=C(c1ccc(C(=O)Nc2ccc3c(c2)CC(CC(=O)O)CC3)cc1)N1CCOCC1 (single isomer, unassigned; (-)) [Example 48, hydrochloride] . 7.48

Give the measured pIC50 of C#CCN(C)C(=N)c1ccc(C(=O)Nc2ccc3c(c2)CC(CC(=O)O)CC3)cc1 (centres unmarked) [Example 35, hydrochloride] . 6.80

Give the measured pIC50 of N=C(c1ccc(C(=O)Nc2ccc3c(c2)CC(CC(=O)O)CC3)cc1)N1CCSCC1 (centres unmarked) [Example 13, hydrochloride] . 7.22

Give the measured pIC50 of N=C(c1ccc(C(=O)Nc2ccc3c(c2)CC(CC(=O)O)CC3)cc1)N1CCOCC1 (centres unmarked) [Example 2, hydrochloride] . 7.17

Give the measured pIC50 of C#CCNC(=N)c1ccc(C(=O)Nc2ccc3c(c2)CC(CC(=O)O)CC3)cc1 (single isomer, unassigned; (-)) [Example 46, hydrochloride] . 7.54

Give the measured pIC50 of C#CCNC(=N)c1ccc(C(=O)Nc2ccc3c(c2)CC(CC(=O)O)CO3)cc1 (centres unmarked) [Example 27, hydrochloride] . 7.11

Give the measured pIC50 of N=C(c1ccc(C(=O)Nc2ccc3c(c2)CC(CC(=O)O)CC3)cc1)N1CCCCC1 (centres unmarked) [Example 18, hydrochloride] . 6.85

Give the measured pIC50 of N=C(c1ccc(C(=O)Nc2ccc3c(c2)OCC(CC(=O)O)C3)cc1)N1CCOCC1 (centres unmarked) [Example 9, hydrochloride] . 6.77

Give the measured pIC50 of CN1CCN(C(=N)c2ccc(C(=O)Nc3ccc4c(c3)CC(CC(=O)O)CC4)cc2)CC1 (centres unmarked) [Example 15, dihydrochloride] . 6.96

Give the measured pIC50 of C#CCNC(=N)c1ccc(C(=O)Nc2ccc3c(c2)CC(CC(=O)O)CO3)cc1 (single isomer, unassigned; (-)) [Example 50, hydrochloride] . 7.36

---

Molecular target: human fibrinogen receptor GP IIb/IIIa (Homo sapiens, UniProt P05106+P08514)
Construct: Concentrated and lyophilized human platelet (20 vial) (Organon Teknika Co.) was lysed; tissue Organon Teknika Co
Sequence (P08514 32-887 limits assumed): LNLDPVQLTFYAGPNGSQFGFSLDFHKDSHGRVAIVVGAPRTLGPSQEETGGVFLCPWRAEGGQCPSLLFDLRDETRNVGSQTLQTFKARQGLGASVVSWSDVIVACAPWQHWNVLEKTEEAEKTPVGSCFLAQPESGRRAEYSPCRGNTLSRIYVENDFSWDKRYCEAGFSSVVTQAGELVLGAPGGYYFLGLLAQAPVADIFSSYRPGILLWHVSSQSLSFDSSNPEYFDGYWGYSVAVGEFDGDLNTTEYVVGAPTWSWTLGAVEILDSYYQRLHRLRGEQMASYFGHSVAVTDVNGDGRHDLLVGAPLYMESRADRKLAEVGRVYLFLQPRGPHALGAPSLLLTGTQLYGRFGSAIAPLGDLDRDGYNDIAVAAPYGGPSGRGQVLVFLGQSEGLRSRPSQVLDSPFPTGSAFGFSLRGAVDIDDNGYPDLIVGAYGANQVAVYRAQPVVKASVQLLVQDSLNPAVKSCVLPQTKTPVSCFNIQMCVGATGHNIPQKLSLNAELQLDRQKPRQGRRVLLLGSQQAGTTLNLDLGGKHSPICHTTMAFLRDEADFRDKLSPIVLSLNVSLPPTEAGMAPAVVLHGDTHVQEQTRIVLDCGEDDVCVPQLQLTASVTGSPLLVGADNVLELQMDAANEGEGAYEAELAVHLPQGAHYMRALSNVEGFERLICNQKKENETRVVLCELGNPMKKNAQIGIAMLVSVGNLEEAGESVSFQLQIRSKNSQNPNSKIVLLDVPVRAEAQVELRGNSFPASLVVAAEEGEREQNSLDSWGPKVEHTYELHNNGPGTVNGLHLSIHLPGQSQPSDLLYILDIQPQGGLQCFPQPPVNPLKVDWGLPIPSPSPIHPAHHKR
Sequence (P08514 891-1039 partner limits assumed): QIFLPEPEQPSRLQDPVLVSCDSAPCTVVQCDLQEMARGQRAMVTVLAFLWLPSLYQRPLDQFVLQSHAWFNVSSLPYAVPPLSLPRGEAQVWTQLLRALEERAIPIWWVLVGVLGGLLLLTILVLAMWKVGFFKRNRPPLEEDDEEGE
Sequence (P05106 27-788): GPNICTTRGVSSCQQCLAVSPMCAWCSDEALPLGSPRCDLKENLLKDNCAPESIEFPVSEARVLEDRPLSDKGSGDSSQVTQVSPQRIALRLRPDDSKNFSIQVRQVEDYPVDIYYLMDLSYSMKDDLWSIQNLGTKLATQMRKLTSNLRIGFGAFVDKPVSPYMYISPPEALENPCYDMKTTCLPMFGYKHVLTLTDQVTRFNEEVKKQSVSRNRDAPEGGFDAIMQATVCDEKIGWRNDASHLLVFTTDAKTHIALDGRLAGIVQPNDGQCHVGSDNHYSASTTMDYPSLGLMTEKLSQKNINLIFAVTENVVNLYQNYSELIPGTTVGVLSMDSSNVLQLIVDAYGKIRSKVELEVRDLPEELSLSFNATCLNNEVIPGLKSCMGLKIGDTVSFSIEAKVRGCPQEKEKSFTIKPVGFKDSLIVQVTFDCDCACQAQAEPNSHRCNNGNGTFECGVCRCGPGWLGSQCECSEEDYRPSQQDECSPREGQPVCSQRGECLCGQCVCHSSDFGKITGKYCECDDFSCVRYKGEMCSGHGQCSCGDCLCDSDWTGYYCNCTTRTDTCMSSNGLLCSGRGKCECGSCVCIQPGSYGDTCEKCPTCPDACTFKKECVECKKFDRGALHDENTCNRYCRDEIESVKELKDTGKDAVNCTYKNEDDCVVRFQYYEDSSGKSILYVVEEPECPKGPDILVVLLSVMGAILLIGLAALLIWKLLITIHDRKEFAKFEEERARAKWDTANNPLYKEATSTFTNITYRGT
Assay: Binding inhibition of biotinylated fibrinogen to GP IIb/IIIa
Settings: purified human GP IIb/IIIa, read-out: Inhibition of GPIIb/IIIa . Fibrinogen Binding, IC50
Counter-ions that a name gives are not always drawn.
Endpoint: pIC50
The read-out pIC50 is expressed as -log10 of concentration in moles per litre.

Give the measured pIC50 of N=C(c1ccc(C(=O)Nc2ccc3c(c2)CC(CC(=O)O)CO3)cc1)N1CCOCC1 (single isomer, unassigned; (-)) [Example 52, hydrochloride] . 9.89

Give the measured pIC50 of NC(=NCc1ccco1)c1ccc(C(=O)Nc2ccc3c(c2)CC(CC(=O)O)CC3)cc1 (stereo not shown) [Example 30, hydrochloride] . 9.85

Give the measured pIC50 of C#CCNC(=N)c1ccc(C(=O)Nc2ccc3c(c2)CC(CC(=O)O)CO3)cc1 (single isomer, unassigned; (-)) [Example 50, hydrochloride] . 9.66

Give the measured pIC50 of C#CCN=C(N)c1ccc(C(=O)Nc2ccc3c(c2)CC(CC(=O)O)CC3)cc1 (stereo not shown) [Example 25, hydrochloride] . 9.74

Give the measured pIC50 of C#CCNC(=N)c1ccc(C(=O)Nc2ccc3c(c2)CC(CC(=O)O)CC3)cc1 (single isomer, unassigned; (-)) [Example 46, hydrochloride] . 9.96

Give the measured pIC50 of N=C(c1ccc(C(=O)Nc2ccc3c(c2)CC(CC(=O)O)CC3)cc1)N1CCOCC1 (stereo not shown) [Example 2, hydrochloride] . 9.89

Give the measured pIC50 of N=C(c1ccc(C(=O)Nc2ccc3c(c2)CC(CC(=O)O)CC3)cc1)N1CCOCC1 (single isomer, unassigned; (-)) [Example 48, hydrochloride] . 10.15

Give the measured pIC50 of N=C(c1ccc(C(=O)Nc2ccc3c(c2)CC(CC(=O)O)CC3)cc1)N1CCSCC1 (stereo not shown) [Example 13, hydrochloride] . 9.55

Give the measured pIC50 of N=C(NCc1cccs1)c1ccc(C(=O)Nc2ccc3c(c2)CC(CC(=O)O)CC3)cc1 (stereo not shown) [Example 37, hydrochloride] . 10.40

Give the measured pIC50 of N=C(c1ccc(C(=O)Nc2ccc3c(c2)CC(CC(=O)O)CC3)cc1)N1CCCCC1 (stereo not shown) [Example 18, hydrochloride] . 9.59

---

Tested on: guinea pig platelets (platelet-rich plasma)
Experiment: Inhibition against platelet aggregation ability after oral administration in guinea pig
Type: in vivo
Details: Cavia porcellus, 1 h, oral administration: 37 μmol/kg, blood collected after an hour, ADP 5 μM, read-out: Aggregation inhibiting rate (%)
Structures can show the parent of a compound that is named as a salt.
Endpoint: inhibition at 37 µmol/kg

Give the measured inhibition at 37 µmol/kg of CCOC(=O)CC1COc2cc(NC(=O)c3ccc(C(=N)N4CCOCC4)cc3)ccc2C1 (stereo not shown) [Example 8, hydrochloride] . > 90%

Give the measured inhibition at 37 µmol/kg of CCOC(=O)CC1COc2ccc(NC(=O)c3ccc(C(=N)N4CCOCC4)cc3)cc2C1 (stereo not shown) [Example 4, hydrochloride] . > 90%

Give the measured inhibition at 37 µmol/kg of CCOC(=O)CC1CCc2ccc(NC(=O)c3ccc(C(=N)N4CCOCC4)cc3)cc2C1 (single isomer, unassigned) [Example 47, hydrochloride] . > 90%

Give the measured inhibition at 37 µmol/kg of C#CCN(C)C(=N)c1ccc(C(=O)Nc2ccc3c(c2)CC(CC(=O)OCC)CC3)cc1 (stereo not shown) [Example 34, hydrochloride] . > 90%

Give the measured inhibition at 37 µmol/kg of CCOC(=O)CC1CCc2ccc(NC(=O)c3ccc(C(=N)NCc4cccnc4)cc3)cc2C1 (stereo not shown) . > 90%

Give the measured inhibition at 37 µmol/kg of CCOC(=O)CC1CCc2ccc(NC(=O)c3ccc(C(=N)N)cc3)cc2C1 (stereo not shown) [Reference Example 1, hydrochloride, reference compound] . 41%

Give the measured inhibition at 37 µmol/kg of CCOC(=O)CC1COc2ccc(NC(=O)c3ccc(C(=N)NCc4ccco4)cc3)cc2C1 (stereo not shown) [Example 31, hydrochloride] . > 90%

---

Tested on: guinea pig platelets (platelet-rich plasma)
Test: Inhibition against platelet aggregation ability after oral administration in guinea pig
Type: in vivo
Settings: Cavia porcellus, 1 h, oral administration: 37 μmol/kg, blood collected after an hour, ADP 5 μM, read-out: Aggregation inhibiting rate (%)
Counter-ions that a name gives are not always drawn.
Endpoint: inhibition at 37 µmol/kg

Give the measured inhibition at 37 µmol/kg of CCCN=C(N)c1ccc(C(=O)Nc2ccc3c(c2)CC(CC(=O)OCC)CC3)cc1 (stereo not shown) [Reference Example 9, hydrochloride, reference compound] . 3%

Give the measured inhibition at 37 µmol/kg of C#CCNC(=N)c1ccc(C(=O)Nc2ccc3c(c2)CC(CC(=O)OCC)CC3)cc1 (single isomer, unassigned) [Example 45, hydrochloride] . > 90%

Give the measured inhibition at 37 µmol/kg of CCOC(=O)CC1CCc2ccc(NC(=O)c3ccc(C(=N)N4CCCC4)cc3)cc2C1 (stereo not shown) [Example 21, hydrochloride] . > 90%

Give the measured inhibition at 37 µmol/kg of CCOC(=O)CC1CCc2ccc(NC(=O)c3ccc(C(=N)NCc4ccco4)cc3)cc2C1 (stereo not shown) [Example 29, hydrochloride] . > 90%

Give the measured inhibition at 37 µmol/kg of CCOC(=O)CC1CCc2ccc(NC(=O)c3ccc(C(=N)N4CCSCC4)cc3)cc2C1 (stereo not shown) [Example 12, hydrochloride] . > 90%

Give the measured inhibition at 37 µmol/kg of CCCCOC(=O)N=C(N)c1ccc(C(=O)Nc2ccc3c(c2)CC(CC(=O)OCC)CC3)cc1 (stereo not shown) [Reference Example 10, reference compound] . 59%

Give the measured inhibition at 37 µmol/kg of CCOC(=O)CC1CCc2ccc(NC(=O)c3ccc(C(=N)N4CCCCCC4)cc3)cc2C1 (stereo not shown) [Example 22, hydrochloride] . > 90%

Give the measured inhibition at 37 µmol/kg of CCOC(=O)CC1CCc2ccc(NC(=O)c3ccc(C(=N)N4CCOCC4)cc3)cc2C1 (stereo not shown) [Example 1, hydrochloride] . > 90%

Give the measured inhibition at 37 µmol/kg of CCOC(=O)CC1CCc2ccc(NC(=O)c3ccc(C(=N)N4CCN(C)CC4)cc3)cc2C1 (stereo not shown) [Example 14, dihydrochloride] . > 90%

Give the measured inhibition at 37 µmol/kg of C#CCN=C(N)c1ccc(C(=O)Nc2ccc3c(c2)CC(CC(=O)OCC)CC3)cc1 (stereo not shown) . > 90%

Give the measured inhibition at 37 µmol/kg of CCOC(=O)CC1COc2ccc(NC(=O)c3ccc(C(=N)N)cc3)cc2C1 (stereo not shown) [Reference Example 3, hydrochloride, reference compound] . 39%

Give the measured inhibition at 37 µmol/kg of CCOC(=O)CN1CCc2ccc(NC(=O)c3ccc(C(=N)N)cc3)cc2C1 [Reference example 5, dihydrochloride, reference compound] . 10%

Give the measured inhibition at 37 µmol/kg of CCOC(=O)CC1CCc2ccc(NC(=O)c3ccc(C(=N)N4CCCCC4)cc3)cc2C1 (stereo not shown) [Example 17, hydrochloride] . > 90%
